Biological target: recombinant human cGAS (aa147-522) (Homo sapiens, UniProt Q8N884)
Construct: recombinant human cGAS (aa147-522); His6-SUMO (cleaved yes); made in house; host or cells: E. coli BL21/pLys
Sequence (Q8N884 147-522): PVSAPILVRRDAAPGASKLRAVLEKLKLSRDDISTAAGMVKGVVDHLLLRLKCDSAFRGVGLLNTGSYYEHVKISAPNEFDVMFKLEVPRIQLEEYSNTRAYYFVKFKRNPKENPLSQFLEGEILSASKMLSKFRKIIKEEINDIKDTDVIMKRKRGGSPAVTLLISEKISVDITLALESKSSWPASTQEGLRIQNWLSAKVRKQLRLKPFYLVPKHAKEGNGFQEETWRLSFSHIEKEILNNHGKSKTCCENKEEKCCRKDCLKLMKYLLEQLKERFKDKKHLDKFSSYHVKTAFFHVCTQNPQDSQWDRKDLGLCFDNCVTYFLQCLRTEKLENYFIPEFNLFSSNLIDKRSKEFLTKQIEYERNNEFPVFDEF
Test: In vitro inhibition assay of cGAS activity (ATP consumption, KinaseGlo Max)
Type: biochemical
Settings: Table 2, read-out: cGAS Inhibition Results IC50
pIC50: −log10 of the molar value.
# key: entry, value: pIC50

Sample answers from the record:
FC(F)(F)c1cc(-n2ccnc2)c2ccc(Cl)cc2n1 [I-422]
< 4.52
Clc1ccc2c(-c3cccnc3)cc(-c3ccccc3)nc2c1 [I-69]
< 4.52
Oc1cccc(-c2cc(-n3ccnc3)c3ccc(Cl)c(Cl)c3n2)c1 [I-43]
> 5.70
Clc1ccc2c(-c3cn[nH]c3)cc(N3CCOC(c4nnn[nH]4)C3)nc2c1Cl (centres unmarked) [I-370]
> 5.70

Could you now look at the following compound, please?
(Q) // Input: Nc1ccc(-c2cc(-n3ccnc3)c3ccc(Cl)cc3n2)cc1C(=O)O [I-20] . Output its pIC50 only.
(A) > 5.70
